Molecular target: Orexin/Hypocretin receptor type 1 (Homo sapiens, UniProt O43613)
Sequence (O43613 whole entry): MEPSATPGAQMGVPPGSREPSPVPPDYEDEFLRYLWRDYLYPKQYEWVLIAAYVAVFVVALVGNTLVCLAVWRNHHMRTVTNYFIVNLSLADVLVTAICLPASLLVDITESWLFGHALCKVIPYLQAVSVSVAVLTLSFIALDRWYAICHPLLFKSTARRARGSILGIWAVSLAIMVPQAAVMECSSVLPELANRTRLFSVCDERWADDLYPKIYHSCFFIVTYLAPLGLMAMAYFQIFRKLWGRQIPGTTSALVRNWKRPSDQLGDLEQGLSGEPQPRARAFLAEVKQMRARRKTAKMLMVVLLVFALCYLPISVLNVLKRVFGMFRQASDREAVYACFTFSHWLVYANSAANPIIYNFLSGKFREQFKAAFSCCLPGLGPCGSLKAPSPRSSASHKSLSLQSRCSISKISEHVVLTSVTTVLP
Assay: Effective agonist concentration to human orexin receptor type 1 determined using the Xlfit program
Residues, ends and D or L forms follow the SMILES beside them.
Parameter measured: EC50

• CC(C)C[C@H](NC(=O)CNC(=O)[C@@H]1CCCN1C(=O)[C@@H]1CCCN1C(=O)CNC(=O)[C@H](CO)NC(=O)[C@@H](N)CCCN=C(N)N)C(=O)N[C@@H](CCC(N)=O)C(=O)NCC(=O)N[C@@H](CCCN=C(N)N)C(=O)N[C@@H](CC(C)C)C(=O)N[C@@H](CCC(N)=O)C(=O)N[C@@H](CCCN=C(N)N)C(=O)O (H-RSGPPGLQGRLQR-OH) = > 1 mM
• CC[C@H](C)[C@H](NC(=O)CNC(=O)[C@H](C)NC(=O)[C@H](C)NC(=O)[C@H](Cc1cnc[nH]1)NC(=O)[C@H](CC(N)=O)NC(=O)CNC(=O)[C@H](CO)NC(=O)[C@H](C)NC(=O)[C@H](CCC(N)=O)NC(=O)[C@H](CC(C)C)NC(=O)[C@H](CC(C)C)NC(=O)[C@H](CCCNC(=N)N)NC(=O)[C@H](CCC(N)=O)NC(=O)[C@H](CC(C)C)NC(=O)[C@@H](N)CCCNC(=N)N)C(=O)N[C@@H](CC(C)C)C(=O)N[C@H](C(=O)N[C@@H](CCSC)C(=O)O)[C@@H](C)O (H-RLQRLLQASGNHAAGILTM-OH) = > 1 mM
• CC[C@H](C)[C@H](NC(=O)CNC(=O)[C@H](C)NC(=O)[C@H](C)NC(=O)[C@H](Cc1c[nH]cn1)NC(=O)[C@H](CC(N)=O)NC(=O)CNC(=O)[C@@H](N)CO)C(=O)N[C@@H](CC(C)C)C(=O)N[C@H](C(=O)N[C@@H](CCSC)C(=O)O)[C@@H](C)O (H-SGNHAAGILTM-OH) = > 1 mM
• CC[C@H](C)[C@H](NC(=O)CNC(=O)[C@H](C)NC(=O)[C@H](C)NC(=O)[C@H](Cc1cnc[nH]1)NC(=O)[C@H](CC(N)=O)NC(=O)CNC(=O)[C@H](C)NC(=O)CNC(=O)[C@H](Cc1cnc[nH]1)NC(=O)[C@H](CC(C)C)NC(=O)[C@H](CC(C)C)NC(=O)[C@H](CCC(=O)O)NC(=O)[C@H](Cc1ccc(O)cc1)NC(=O)[C@H](CC(C)C)NC(=O)[C@@H](N)CCCNC(=N)N)C(=O)N[C@@H](CC(C)C)C(=O)N[C@H](C(=O)N[C@@H](CC(C)C)C(=O)O)[C@@H](C)O (H-RLYELLHGAGNHAAGILTL-OH) = 0.00179 mM

Moving on to another compound below.
Endpoint output: EC50 of "CC(C)C[C@H](NC(=O)[C@@H]1CCCN1C(=O)[C@@H]1CCC(=O)N1)C(=O)N1CCC[C@H]1C(=O)N[C@@H](CC(=O)O)C(=O)N[C@@H](CS)C(=O)N[C@@H](CS)C(=O)N[C@@H](CCCN=C(N)N)C(=O)N[C@@H](CCC(N)=O)C(=O)N[C@@H](CCCCN)C(=O)N[C@H](C(=O)O)[C@@H](C)O" . Value?
> 1 mM

From: ChEMBL document CHEMBL1148480
